Source: the supplement of paper PMC3545927

- target-system: furin, P09958;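 further: purified furin at 1:10 enzyme:substrate in 50 mM HEPES pH 7.5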
- Sequence (P09958 whole entry): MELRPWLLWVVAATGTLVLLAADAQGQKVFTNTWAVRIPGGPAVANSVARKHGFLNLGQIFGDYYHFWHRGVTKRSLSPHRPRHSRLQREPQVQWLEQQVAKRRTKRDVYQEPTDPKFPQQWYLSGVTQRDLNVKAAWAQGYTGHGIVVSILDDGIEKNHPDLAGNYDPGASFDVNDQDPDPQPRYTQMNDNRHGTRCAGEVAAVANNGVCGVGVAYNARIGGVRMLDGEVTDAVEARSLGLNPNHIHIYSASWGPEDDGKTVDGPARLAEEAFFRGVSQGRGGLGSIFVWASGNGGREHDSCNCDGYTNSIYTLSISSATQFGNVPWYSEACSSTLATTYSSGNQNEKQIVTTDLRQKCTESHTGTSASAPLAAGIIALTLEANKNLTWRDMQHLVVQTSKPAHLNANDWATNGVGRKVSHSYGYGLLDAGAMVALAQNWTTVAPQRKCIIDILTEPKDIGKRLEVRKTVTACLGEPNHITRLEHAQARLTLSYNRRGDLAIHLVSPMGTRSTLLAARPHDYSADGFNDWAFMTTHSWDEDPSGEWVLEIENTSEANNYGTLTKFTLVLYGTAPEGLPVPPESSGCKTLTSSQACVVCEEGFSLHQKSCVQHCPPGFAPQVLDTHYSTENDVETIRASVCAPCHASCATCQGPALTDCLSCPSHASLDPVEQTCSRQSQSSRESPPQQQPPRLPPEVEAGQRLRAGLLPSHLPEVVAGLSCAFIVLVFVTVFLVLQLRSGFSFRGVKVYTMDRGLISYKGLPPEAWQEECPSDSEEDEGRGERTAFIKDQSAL
- assay: furin cleavage Z-score vs untreated control; higher = more cleavage, active = 3.5 or more, inactive = 1 or less, 8 variable residues between constant flanks
- experimental-setup: 30 min
The list shows a part of the results. The hit rate among all sequences tested is not known here.
Log the outcome using a class from active, inactive

// below: answered sequences
| macromolecule-sequence | assigned-class |
| --- | --- |
| CARNRRHIEKAGNASASA [FS-2283] | active |
| CARNRRVTRRAGNASASA [FS-2163] | active |
| CARNRRRVCKAGNASASA [FS-2162] | inactive |
| CARCDLEDRDAGNASASA [HC486] | inactive |
| CAADGMVSKGAGNASASA [HC668] | inactive |
| CARPARSGGPAGNASASA [FS-2735] | inactive |
| CARPARSVGSAGNASASA [FS-2736] | active |
| CARPARSVSKAGNASASA [FS-2498] | active |
| CACTPCSGSWAGNASASA [HC1840] | inactive |
| CATEMEECSQAGNASASA [HC1798] | inactive |

Prompt: Please let me know the test result on file for CAMEECSQILAGNASASA [HC1744] .
Completion: inactive

Prompt: Please let me know the test result on file for CAMDVVCCSMAGNASASA [HC2106] .
Completion: inactive

Prompt: Please let me know the test result on file for CARPARLVPAAGNASASA [FS-2398] .
Completion: inactive

Prompt: Please let me know the test result on file for CAAPAVQTNWAGNASASA [HC1034] .
Completion: inactive

Prompt: Please let me know the test result on file for CAWEECSQHLAGNASASA [HC1668] .
Completion: inactive
